Tested on: SK-MEL-28
Experiment Description: NCI tumour cell line growth inhibition, 48 h
Calls of active or inactive are those of the source. Cut-off read from the data, not from the text of the source: active = GI50 up to about 1.1 µM and inactive = higher.
Observed Property: GI50

Examples with answers:
COC(=O)C1CCC(=O)N1C(c1ccc(OC)cc1)c1ccc(OC)cc1 (centres undefined) ... > 100 µM (inactive)
C#CCN(Cc1ccc2nc(OC)c(OC)nc2c1)c1cc(OC)c(OC)c(OC)c1 ... 40.9 µM (inactive)
[N-]=[N+]=Nc1ccc(NCCCCCC(=O)ON2C(=O)CCC2=O)c([N+](=O)[O-])c1 ... 74.1 µM (inactive)
O=C(c1ccco1)N1CCN(C(=O)c2ccco2)C1=S ... 5.87 µM (inactive)
C[C@@H]1OC(=O)C[C@H]2CC(=O)N(CCC3CN(S(=O)(=O)C(F)(F)F)c4ccc(Cc5ccc6c(c5)C(CCN5C[C@H]7[C@@H](CC(=O)O[C@H]7C)CC5=O)CN6S(=O)(=O)C(F)(F)F)cc43)C[C@@H]21 (some centres undefined) ... > 100 µM (inactive)
COc1cc2c(cc1O)[C@H](C)C(c1ccc(OC)c(OC)c1)O2 (some centres undefined) ... 9.75 µM (inactive)
COc1cccc(C=C(C#N)C#N)c1OC ... > 100 µM (inactive)
O=C(O)c1ccc(Nc2c3ccccc3nc3ccccc23)cc1 ... > 100 µM (inactive)

Lookup: Tell me its GI50 given N#Cc1nc(C(=O)c2ccccc2)oc1N as the entry.
Found: > 100 µM (inactive)

###

System: EKVX
Experiment Description: NCI tumour cell line growth inhibition, 48 h
Calls of active or inactive are those of the source. Cut-off read from the data, not from the text of the source: active = GI50 up to about 1.1 µM and inactive = higher.
Observed Property: GI50

The examples below pair each entry with its known result.
C/C=C/COc1cc(NC(=S)OC(C)C)ccc1Cl.C/C=C\COc1cc(NC(=S)OC(C)C)ccc1Cl ... 12.6 µM (inactive)
O=C(O)C1CC(O)CN1 (centres undefined) ... > 100 µM (inactive)
O=C1/C(=C/c2cccnc2)C(n2cccc2)c2c(Br)sc(Br)c21 (centres undefined) ... 2 µM (inactive)

Now let's try a different one.
Lookup: Give GI50 for O=S(O)CCCCSSCCCCSSCCCCS(=O)O tested on EKVX.
Found: 6.38 µM (inactive)

###

The following compounds are listed with their measured GI50 values.
System: MOLT-4
Experiment Description: NCI tumour cell line growth inhibition, 48 h
The source made the active and inactive calls. No stated cut-off is given here; in the data, active = GI50 up to about 1.1 µM and inactive = higher.

Lookup: Consider the compound O=C/C(=C1/C=Cc2cc([N+](=O)[O-])ccc2S1)c1ccccc1 . State its measured GI50.
Found: > 100 µM (inactive)

Lookup: Identify the reported GI50 for the following entry. Cc1cc(/N=C/c2ccc(N(C)C)cc2)n(-c2ccccc2)n1
Found: 42.6 µM (inactive)

Lookup: Return reported GI50. Input compound: COC1OC(C)C(NC(=O)OCC(Cl)(Cl)Cl)C2OC(C)(C)OC12 (centres undefined)
Found: > 100 µM (inactive)

Lookup: Supply reported GI50 belonging to this compound: COC1CC(Br)(C#N)C1 (centres undefined)
Found: 52 µM (inactive)

Lookup: Name the recorded GI50 of the compound listed here: Cc1ccc(C(=O)NN=C(/N=N/c2cccc(C)c2)c2ccc(N(C)C)cc2)cc1
Found: > 100 µM (inactive)

Lookup: Return reported GI50. Input compound: N#Cc1c(-c2ccccc2)c(C#N)c(=S)n(C2OCC(O)C(O)C2O)c1N (centres undefined)
Found: > 100 µM (inactive)

Lookup: Please list GI50 recorded for the compound O=C(Nc1ccccc1F)c1cc2ccc(O)cc2o/c1=N\c1ccccc1F
Found: 1.74 µM (inactive)

Lookup: Return GI50 for the following compound: Cc1ccc(N2C(=O)C(Cl)=C(Cl)C2=O)cc1
Found: 16.4 µM (inactive)

###

GI50 for assorted compounds
System: U-251
Experiment Description: NCI tumour cell line growth inhibition, 48 h
Active and inactive are the calls of the source. Cut-off read from the data, not from the text of the source: active = GI50 up to about 1.1 µM and inactive = higher.

CC(NNC(=O)CC(=O)N(C(=O)c1ccccc1)c1ccc(Cl)cc1)c1cc2ccccc2oc1=O (configuration not stated) ... > 10 µM (inactive)

Lookup: Give a short answer stating reported GI50 for O=c1c(Cc2ccc(Cl)cc2)nnc2sc(-c3ccc(-c4ccc(Cl)cc4Cl)o3)nn12 .
Found: 31 µM (inactive)

Lookup: // Input: COCCOCOc1ccc(OCOCCOC)c2c1C(=O)c1ccccc1C2=O . Output its GI50 only.
Found: 41.9 µM (inactive)

Lookup: For the compound Cc1nn(C)c2c1C(=O)N(C)CC(=O)N2C , give its measured GI50 value.
Found: > 100 µM (inactive)

Lookup: Provide only the value of recorded GI50 for O=C(Nc1ccccc1F)c1cc2ccc(O)cc2o/c1=N\c1ccccc1F
Found: 1.93 µM (inactive)

Lookup: Read off the recorded GI50 for [N-]=[N+]=Nc1ccc(NCCCCCC(=O)ON2C(=O)CCC2=O)c([N+](=O)[O-])c1
Found: > 100 µM (inactive)

Lookup: Consider the compound C/C(=N/S(=O)(=O)c1ccc(Cl)c(Cl)c1)OCC(C)(C)C . State its measured GI50.
Found: > 100 µM (inactive)

###

Test system: MDA-MB-231
Experiment Description: NCI tumour cell line growth inhibition, 48 h
Activity calls are given as the source filed them. No stated cut-off is given here; in the data, active = GI50 up to about 1.1 µM and inactive = higher.
# key: entry, value: GI50

In the examples that follow, each entry is paired with its recorded GI50.
CCC(=O)OCN1C(=O)C=CC1=O ... 18.7 µM (inactive)
COC(=O)C1=C(O)c2ccc(Cl)cc2S(=O)(=O)N1C ... > 100 µM (inactive)
Cc1ccc2c(c1)CC1(Cc3cc(C)ccc3C1=O)C2=O ... > 100 µM (inactive)

Lookup: Note down GI50 recorded for COc1ccc(Cl)cc1NC(=O)c1cccc([N+](=O)[O-])c1O
Found: 24.8 µM (inactive)

Lookup: Output GI50 of Oc1c(Br)ccc2cccnc12
Found: 1.87 µM (inactive)

Lookup: Identify the reported GI50 for the following entry. Cc1ccc(S(=O)(=O)n2c3c(c4ccccc42)CCN2C[C@H]([C@H](C)Br)CC[C@@H]32)cc1
Found: > 100 µM (inactive)

###

System: MCF7
Experiment Description: NCI tumour cell line growth inhibition, 48 h
Active and inactive are the calls of the source. No stated cut-off is given here; in the data, active = GI50 up to about 1.1 µM and inactive = higher.
Observed Property: GI50

Please review the entries below; each comes with its answer.
Nc1ccc(N(S(=O)(=O)c2ccccc2)S(=O)(=O)c2ccccc2)c(Cl)c1 ... 39.3 µM (inactive)
O=C(Nc1ccccc1F)c1cc2ccc(O)cc2o/c1=N\c1ccccc1F ... 3.2 µM (inactive)
Cc1cc(/N=C/c2ccc(N(C)C)cc2)n(-c2ccccc2)n1 ... 31 µM (inactive)
CCC1OC2C(CC=C(C)C)=C3OC(C)(O)C(C)(CC)C(OC(C)=O)C3=C3OC(=O)C=C1C32 (stereo not given) ... 30.1 µM (inactive)
Clc1ccc2nc3c(c(-c4ccccc4)nn3-c3ccccc3)c(-c3ccccc3)c2c1 ... > 100 µM (inactive)

Lookup: Return the recorded GI50 value; entry: N#Cc1nc(C(=O)c2ccccc2)oc1N
Found: > 100 µM (inactive)

Lookup: Report GI50, nothing else, for this molecule: CCOc1cc(-c2nc3ccccn3c2/N=C/c2cc([N+](=O)[O-])cc([N+](=O)[O-])c2O)ccc1O
Found: > 100 µM (inactive)

Lookup: Return value of GI50 for input CC(=O)NC(Cc1c[nH]cn1)C(=O)N1CCCC1C(N)=O (stereo not given) , no commentary.
Found: > 100 µM (inactive)

Lookup: Item COC(=O)C1=C(OC(=O)/C(=C/c2ccccc2)c2ccccc2)C(C(=O)OC)[C@@]2(O)[C@@H](C(=O)OC)[C@H](C)C[C@@H]1[C@@H]2C(=O)OC (stereo not given in full) : provide GI50
Found: > 100 µM (inactive)

Lookup: Note GI50 for the molecule shown: N=C(N)c1ccc(/N=N\c2c(O)ccc3cc4c(/N=N\c5ccc(C(=N)N)cc5)c(O)ccc4cc23)cc1
Found: 87.9 µM (inactive)

###

Test system: M19-MEL
Experiment Description: NCI tumour cell line growth inhibition, 48 h
The source made the active and inactive calls. Rule as the data show it: active = GI50 up to about 1.1 µM and inactive = higher.
Log the outcome using a class from active, inactive

COc1ccccc1-n1c(NN)nc2ccc(Br)cc2c1=O ... inactive
COc1ccccc1-c1cc(O)c2cc3c(cc2n1)OCO3 ... inactive
O=S(=O)(Sc1ccc(Cl)cc1)c1ccc(Cl)cc1 ... inactive
COc1cc(-c2cc(CCC(=O)Nc3ccccc3[N+](=O)[O-])n(-c3ccc([N+](=O)[O-])cc3[N+](=O)[O-])n2)ccc1O ... inactive
C[N+](C)(C)CC(=O)N/N=C/c1oc(-c2c(O)ccc3ccccc23)c(-c2c(O)ccc3ccccc23)c1[N+](=O)[O-] ... inactive

Lookup: # outcome recorded in this test, key = N#Cc1c(-c2ccccc2)cc(-c2cccs2)c(C#N)c1N
Found: inactive

Lookup: Each compound tested received a call. Report the one for C[C@]12CCc3nonc3C1CC[C@@H]1C2CC[C@]2(C)C(=O)/C(=N\O)CC12 (some centres not stated) .
Found: inactive

Lookup: What did the test return for CCc1ccccc1NC(=O)C(=O)C1C(=O)N(c2ccccc2)N=C1N (configuration not stated) ?
Found: inactive

Lookup: So what was the verdict on COc1ccc(-c2ccccc2)c2[nH]c3c(c12)CCNC3=O in this test?
Found: inactive
